Target: hTLR9 (Homo sapiens)
Sequence (Q9NR96 26-1032): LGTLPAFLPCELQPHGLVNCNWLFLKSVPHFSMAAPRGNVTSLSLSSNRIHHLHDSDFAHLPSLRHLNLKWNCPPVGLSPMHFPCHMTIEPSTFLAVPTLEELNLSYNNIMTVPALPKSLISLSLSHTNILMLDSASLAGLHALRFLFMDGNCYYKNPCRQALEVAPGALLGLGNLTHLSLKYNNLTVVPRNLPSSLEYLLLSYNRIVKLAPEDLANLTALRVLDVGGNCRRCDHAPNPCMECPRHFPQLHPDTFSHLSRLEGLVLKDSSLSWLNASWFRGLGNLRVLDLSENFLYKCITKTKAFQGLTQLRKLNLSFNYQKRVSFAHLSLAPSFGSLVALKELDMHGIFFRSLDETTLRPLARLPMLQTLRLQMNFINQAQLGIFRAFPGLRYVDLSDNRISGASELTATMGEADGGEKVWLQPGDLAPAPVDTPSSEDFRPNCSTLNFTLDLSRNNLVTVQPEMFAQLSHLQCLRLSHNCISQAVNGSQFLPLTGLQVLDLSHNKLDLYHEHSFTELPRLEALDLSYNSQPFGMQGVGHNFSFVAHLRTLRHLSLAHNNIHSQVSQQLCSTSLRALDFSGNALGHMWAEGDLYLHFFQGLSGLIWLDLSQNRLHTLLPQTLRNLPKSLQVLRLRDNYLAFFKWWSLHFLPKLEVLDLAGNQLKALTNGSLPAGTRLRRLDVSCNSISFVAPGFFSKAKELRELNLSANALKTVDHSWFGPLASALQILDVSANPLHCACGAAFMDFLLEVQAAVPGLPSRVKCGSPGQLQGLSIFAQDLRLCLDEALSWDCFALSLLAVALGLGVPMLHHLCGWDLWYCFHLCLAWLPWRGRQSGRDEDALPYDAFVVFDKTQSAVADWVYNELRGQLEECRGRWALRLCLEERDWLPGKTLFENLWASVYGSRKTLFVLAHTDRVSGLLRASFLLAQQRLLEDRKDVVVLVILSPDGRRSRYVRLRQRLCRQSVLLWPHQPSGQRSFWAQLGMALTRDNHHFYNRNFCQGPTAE
Assay: HEK293-Blue-hTLR-9 cells assay (SEAP reporter, ODN2006 stimulation)
Assay type: cell-based
Parameters: host or cells: HEK293 (HEK-Blue hTLR9)
Details: HEK293-Blue-hTLR9 cells, ODN2006, 20 hrs; read-out: HEK/hTLR9 IC50
measurement-kind: pIC50
Units for pIC50: none; it is -log10 of a concentration expressed in mol/L.

Recorded results for 5 compounds are shown here.
[2H]c1ccc2c(N3C[C@H](CN4CCN(c5cccc(N6CC(C)(N)C6)n5)CC4)O[C@H](C)C3)ccc(C#N)c2n1 : 7.15
C[C@@H]1CN(c2ccc(C#N)n3ncc(F)c23)C[C@H](CN2CCN(c3ccc([C@@H]4CNCCO4)c(F)c3)CC2)O1 : 6.91
COC1CN(c2ccc(C3CN(C[C@H]4CN(c5cc(=O)n(C)c6ncccc56)C[C@@H](C)O4)C3)cc2)C[C@H]1N (stereo in doubt) : 7.24
Cc1ccc(N2C[C@H](CN3CCN(c4nccc(N5CCNCC5)n4)CC3)O[C@H](C)C2)c2nccnc12 : 7.05
[2H]c1ccc2c(N3C[C@H](CN4CC(c5ccc(N6CC(C)(N)C6)cc5)C4)O[C@H](C)C3)ccc(C#N)c2n1 : 7.36

Please indicate pIC50 recorded for `C[C@@H]1CN(c2ccc(C#N)c3ncccc23)C[C@H](CN2CCN(c3cccc(N4CCN(C)CC4)n3)CC2)O1` 6.94

Please indicate pIC50 recorded for `C[C@@H]1CN(c2ccc(C#N)c3ncccc23)C[C@H](CN2CCN(c3ccc(N4CCNCC4)cn3)CC2)O1` 7.03

Please indicate pIC50 recorded for `[2H]c1nc2c(C#N)ccc(N3C[C@H](CN4CCN(c5nc(C)cc(N6C[C@H](OC)[C@@H](N)C6)n5)CC4)O[C@H](C)C3)c2nc1[2H]` 7.16

Please indicate pIC50 recorded for CO[C@H]1CN(c2nccc(N3CCN(C[C@H]4CN(c5ccc(C#N)c6ncccc56)C[C@@H](C)O4)CC3)n2)CC1N (stereo in doubt) 7.49

---

Target: hERG channel (Homo sapiens, UniProt Q12809)
Construct: expressed in transfected cells; host or cells: CHO (Chinese hamster ovary)
Sequence (Q12809 whole entry): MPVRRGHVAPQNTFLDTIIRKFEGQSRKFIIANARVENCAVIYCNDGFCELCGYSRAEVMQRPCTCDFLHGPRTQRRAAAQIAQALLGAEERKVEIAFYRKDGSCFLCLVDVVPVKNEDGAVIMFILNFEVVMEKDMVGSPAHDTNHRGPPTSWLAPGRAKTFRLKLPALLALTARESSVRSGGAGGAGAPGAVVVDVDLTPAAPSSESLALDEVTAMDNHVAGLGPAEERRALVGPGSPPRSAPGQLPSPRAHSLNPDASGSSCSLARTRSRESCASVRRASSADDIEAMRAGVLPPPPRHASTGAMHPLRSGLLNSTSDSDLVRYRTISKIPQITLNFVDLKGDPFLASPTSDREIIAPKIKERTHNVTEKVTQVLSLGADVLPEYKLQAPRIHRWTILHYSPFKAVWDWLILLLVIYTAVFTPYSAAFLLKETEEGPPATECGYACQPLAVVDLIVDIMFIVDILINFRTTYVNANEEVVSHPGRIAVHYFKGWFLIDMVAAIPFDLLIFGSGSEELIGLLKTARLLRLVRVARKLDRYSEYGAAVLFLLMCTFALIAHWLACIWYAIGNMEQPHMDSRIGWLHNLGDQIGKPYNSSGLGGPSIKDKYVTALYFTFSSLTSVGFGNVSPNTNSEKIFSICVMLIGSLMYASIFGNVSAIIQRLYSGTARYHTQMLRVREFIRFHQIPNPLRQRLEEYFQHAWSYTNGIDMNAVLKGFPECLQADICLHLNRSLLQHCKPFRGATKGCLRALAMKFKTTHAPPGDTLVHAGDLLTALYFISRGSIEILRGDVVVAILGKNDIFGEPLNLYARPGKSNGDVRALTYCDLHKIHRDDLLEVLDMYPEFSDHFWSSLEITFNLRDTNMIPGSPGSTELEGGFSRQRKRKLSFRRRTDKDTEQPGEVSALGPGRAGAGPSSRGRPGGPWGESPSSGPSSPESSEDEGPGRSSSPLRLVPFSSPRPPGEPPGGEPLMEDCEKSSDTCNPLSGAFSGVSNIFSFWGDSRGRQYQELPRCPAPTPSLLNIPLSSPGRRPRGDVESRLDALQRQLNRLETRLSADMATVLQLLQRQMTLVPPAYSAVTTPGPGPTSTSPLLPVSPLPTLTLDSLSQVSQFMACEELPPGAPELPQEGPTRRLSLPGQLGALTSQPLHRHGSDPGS
Assay: hERG channel inhibition assay (patch-clamp, CHOhERG cells)
Assay type: cell-based
Settings: safety ratio
measurement-kind: hERG IC20/TLR9 IC50

Recorded results for 2 compounds are shown here.
[2H]c1ccc2c(N3C[C@H](CN4CCN(c5nc(C)cc(N6C[C@@H](N)[C@H](OC)C6)n5)CC4)O[C@H](C)C3)ccc(C#N)c2n1 : >322
[2H]c1ccc2c(N3C[C@H](CN4CCN(c5ccc(N6C[C@@H](N)[C@H](OC)C6)nc5)CC4)O[C@H](C)C3)ccc(C#N)c2n1 : >212

Please indicate hERG IC20/TLR9 IC50 recorded for `CO[C@H]1CN(c2cc(C)nc(N3CCN(C[C@H]4CN(c5ccc(C#N)c6nccnc56)C[C@@H](C)O4)CC3)n2)C[C@@H]1N` >142

---

Target: CYP2C9 (Homo sapiens, UniProt P11712)
Construct: tissue BD-Gentest 452117; host or cells: human liver microsomes
Sequence (P11712 whole entry): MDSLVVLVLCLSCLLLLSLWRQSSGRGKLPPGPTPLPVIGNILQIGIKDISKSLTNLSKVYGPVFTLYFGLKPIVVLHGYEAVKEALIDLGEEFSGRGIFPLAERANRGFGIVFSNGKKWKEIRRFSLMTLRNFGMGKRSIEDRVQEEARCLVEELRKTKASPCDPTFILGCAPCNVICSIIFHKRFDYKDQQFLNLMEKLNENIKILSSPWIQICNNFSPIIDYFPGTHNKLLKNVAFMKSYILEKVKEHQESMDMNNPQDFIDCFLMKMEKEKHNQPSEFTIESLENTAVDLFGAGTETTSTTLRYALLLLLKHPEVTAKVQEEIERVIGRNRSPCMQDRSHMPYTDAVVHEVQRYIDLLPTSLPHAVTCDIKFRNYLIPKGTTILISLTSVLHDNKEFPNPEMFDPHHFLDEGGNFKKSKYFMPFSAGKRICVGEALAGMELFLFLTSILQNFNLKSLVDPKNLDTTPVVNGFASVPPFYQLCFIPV
Assay: CYP inhibition assay in human liver microsome, CYP2C9
Format: in vitro ADME
Details: human, human liver microsomes, probe diclofenac 5 μM, substrate diclofenac 5 μM, first value of 2C9/2D6/3A4
measurement-kind: inhibition at 5 min, 10 µM (%)
API: value field is a number in %; no unit string.

Recorded results for 2 compounds are shown here.
C[C@@H]1CN(c2ccc(C#N)n3ncc(F)c23)C[C@H](CN2CCN(c3ccc(N4CC(C)(N)C4)nc3)CC2)O1 [Example 154] : 2.5
C[C@@H]1CN(c2ccc(C#N)c3ncccc23)C[C@H](CN2CCN(c3cc(N4CCN(C)CC4)ncn3)CC2)O1 [Example 21] : -3

State inhibition at 5 min, 10 µM on CYP2C9 (Homo sapiens, UniProt P11712). Entry: C[C@@H]1CN(c2ccc(C#N)n3ncc(F)c23)C[C@H](CN2CC(c3ccc(N4C[C@@H]5C[C@H]4CN5)nc3)C2)O1 [Example 165] -8.5

State inhibition at 5 min, 10 µM on CYP2C9 (Homo sapiens, UniProt P11712). Entry: C[C@@H]1CN(c2ccc(C#N)n3ncc(F)c23)C[C@H](CN2CCN(c3ccc(N[C@H]4CNC[C@H]4F)nc3)CC2)O1 [Example 167] -1

State inhibition at 5 min, 10 µM on CYP2C9 (Homo sapiens, UniProt P11712). Entry: COC1CN(c2ccc(N3CCN(C[C@H]4CN(c5ccc(C#N)c6ncccc56)C[C@@H](C)O4)CC3)cn2)CC1N (some centres unmarked) [Example 43] 2.5

State inhibition at 5 min, 10 µM on CYP2C9 (Homo sapiens, UniProt P11712). Entry: COC1CNC[C@H]1Nc1cccc(N2CCN(C[C@H]3CN(c4ccc(C#N)c5ncccc45)C[C@@H](C)O3)CC2)n1 (stereo in doubt) [Example 39] 23

State inhibition at 5 min, 10 µM on CYP2C9 (Homo sapiens, UniProt P11712). Entry: C[C@@H]1CN(c2ccc(C#N)c3ncccc23)C[C@H](CN2CCN(c3cccc(NC4CNC4)n3)CC2)O1 [Example 38] 20

State inhibition at 5 min, 10 µM on CYP2C9 (Homo sapiens, UniProt P11712). Entry: C[C@@H]1CN(c2ccc(C#N)n3nccc23)C[C@H](CN2CC(c3ccc(N4CC(C)(N)C4)cc3)C2)O1 [Example 163] -4.5

State inhibition at 5 min, 10 µM on CYP2C9 (Homo sapiens, UniProt P11712). Entry: C[C@@H]1CN(c2ccc(C#N)n3ncc(F)c23)C[C@H](CN2CCN(c3ccc(N4CC5(CN(C)C5)C4)nc3)CC2)O1 [Example 170] -1

State inhibition at 5 min, 10 µM on CYP2C9 (Homo sapiens, UniProt P11712). Entry: C[C@@H]1CN(c2ccc(C#N)c3ncccc23)C[C@H](CN2CCN(c3ccnc(N[C@H]4CNC[C@H]4F)n3)CC2)O1 [Example 24] 3.5

State inhibition at 5 min, 10 µM on CYP2C9 (Homo sapiens, UniProt P11712). Entry: C[C@@H]1CN(c2ccc(C#N)c3ncccc23)C[C@H](CN2CCN(c3ccnc(N4CCNCC4)n3)CC2)O1 [Example 15] 9

State inhibition at 5 min, 10 µM on CYP2C9 (Homo sapiens, UniProt P11712). Entry: Cc1ccc(N2C[C@H](CN3CCN(c4nccc(N5CCNCC5)n4)CC3)O[C@H](C)C2)c2nccnc12 [Example 116] -8.5

State inhibition at 5 min, 10 µM on CYP2C9 (Homo sapiens, UniProt P11712). Entry: Cc1ccc(N2C[C@H](CN3CCN(c4ccnc(N5CCNCC5)n4)CC3)O[C@H](C)C2)c2nccnc12 [Example 117] 8.5

State inhibition at 5 min, 10 µM on CYP2C9 (Homo sapiens, UniProt P11712). Entry: CO[C@H]1CN(c2nc(C)cc(N3CCN(C[C@H]4CN(c5ccc(C#N)c6nccnc56)C[C@@H](C)O4)CC3)n2)C[C@@H]1N [Example 106] 17

State inhibition at 5 min, 10 µM on CYP2C9 (Homo sapiens, UniProt P11712). Entry: CO[C@H]1CN(c2cc(C)nc(N3CCN(C[C@H]4CN(c5ccc(C#N)c6nccnc56)C[C@@H](C)O4)CC3)n2)C[C@@H]1N [Example 104] -1

State inhibition at 5 min, 10 µM on CYP2C9 (Homo sapiens, UniProt P11712). Entry: C[C@@H]1CN(c2ccc(C#N)c3nccnc23)C[C@H](CN2CCN(c3nccc(N4C[C@@H](N)[C@H](F)C4)n3)CC2)O1 [Example 119] -12.5

State inhibition at 5 min, 10 µM on CYP2C9 (Homo sapiens, UniProt P11712). Entry: Cc1cc(N2CCN(C[C@H]3CN(c4ccc(C#N)c5nccnc45)C[C@@H](C)O3)CC2)nc(N2CC(N)C2)n1 [Example 112] 0.5

State inhibition at 5 min, 10 µM on CYP2C9 (Homo sapiens, UniProt P11712). Entry: C[C@@H]1CN(c2ccc(C#N)c3nccnc23)C[C@H](CN2CCN(c3ccnc(N4C[C@H](N)[C@@H](F)C4)n3)CC2)O1 [Example 107] 19.5

---

Molecular target: CYP3A4 (Homo sapiens, UniProt P08684)
Construct: tissue BD-Gentest 452117; host or cells: human liver microsomes
Sequence (P08684 whole entry): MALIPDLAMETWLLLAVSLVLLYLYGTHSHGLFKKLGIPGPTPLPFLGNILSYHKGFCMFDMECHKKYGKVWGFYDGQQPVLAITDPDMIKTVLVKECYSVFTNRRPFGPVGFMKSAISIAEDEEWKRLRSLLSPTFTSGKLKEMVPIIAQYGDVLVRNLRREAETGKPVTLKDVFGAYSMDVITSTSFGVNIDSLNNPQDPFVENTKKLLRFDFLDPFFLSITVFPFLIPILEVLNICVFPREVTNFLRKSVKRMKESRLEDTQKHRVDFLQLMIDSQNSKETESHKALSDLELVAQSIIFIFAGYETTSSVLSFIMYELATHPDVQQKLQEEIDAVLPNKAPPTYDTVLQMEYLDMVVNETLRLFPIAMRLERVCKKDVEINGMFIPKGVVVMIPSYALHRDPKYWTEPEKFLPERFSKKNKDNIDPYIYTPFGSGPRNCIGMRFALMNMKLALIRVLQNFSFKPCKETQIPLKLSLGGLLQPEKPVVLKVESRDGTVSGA
Test: CYP inhibition assay in human liver microsome, CYP3A4
Type: in vitro ADME
Conditions: human, human liver microsomes, probe midazolam 5 μM, substrate midazolam 5 μM, third value of 2C9/2D6/3A4
measurement-kind: inhibition at 5 min, 10 µM (%)
API: value field is a number in %; no unit string.

Recorded results for 5 molecules are shown here.
C[C@@H]1CN(c2ccc(C#N)n3ncc(F)c23)C[C@H](CN2CC(c3ccc(N4C[C@@H]5C[C@H]4CN5)nc3)C2)O1 : 9
Cc1ccc(N2C[C@H](CN3CCN(c4ccnc(N5CCNCC5)n4)CC3)O[C@H](C)C2)c2nccnc12 : 10
C[C@@H]1CN(c2ccc(C#N)n3ncc(F)c23)C[C@H](CN2CCN(c3ccc(N4C[C@H]5NCCO[C@@H]5C4)nc3)CC2)O1 : 11
C[C@@H]1CN(c2ccc(C#N)c3ncccc23)C[C@H](CN2CCN(c3cc(N4CCNCC4)ccn3)CC2)O1 : 7.5
C[C@@H]1CN(c2ccc(C#N)c3nccnc23)C[C@H](CN2CCN(c3ccnc(N4C[C@H](N)[C@@H](F)C4)n3)CC2)O1 : 34.5

Would you kindly look at the next entry?
Please indicate inhibition at 5 min, 10 µM recorded for `CO[C@H]1CN(c2cc(C)nc(N3CCN(C[C@H]4CN(c5ccc(C#N)c6nccnc56)C[C@@H](C)O4)CC3)n2)C[C@@H]1N` -12

Where do the numbers come from? From patent US20210395239A1.
